For each record, write down the corresponding percent of complexes.
Biological target: anti-CC49 variable region (anti-idiotypic) antibodies in the serum of patient three
Assay: HPLC size exclusion; 5 µg cold competitor + ^125I-HuCC49 + patient serum; less complex = more competition
Answers are plain numbers, in %.

Consider the worked cases shown below.
binder	observedMeasurement
HuCC49 CDR variant H-2 (antibody, V domains shown) VH: QVQLVQSGAEVVKPGASVKISCKASGYTFTDHAIHWVKQNPGQRLEWIGWINAGNGNTKYSQKFQGKATLTADTSASTAYVELSSLRSEDTAVYFCTRSLNMAYWGQGTLVTVSS VL: DIVMSQSPDSLAVSLGERVTLNCKSSQSLLYSGNQKNYLAWYQQKPGQSPKLLIYWASARESGVPDRFSGSGSGTDFTLTISSVQAEDVAVYYCQQYYSYPLTFGAGTKLELK	12.7
HuCC49 CDR variant L-3 (antibody, V domains shown) VH: QVQLVQSGAEVVKPGASVKISCKASGYTFTDHAIHWVKQNPGQRLEWIGYFSPGNDDFKYNERFKGKATLTADTSASTAYVELSSLRSEDTAVYFCTRSLNMAYWGQGTLVTVSS VL: DIVMSQSPDSLAVSLGERVTLNCKSSQSLLYSGNQKNYLAWYQQKPGQSPKLLIYWASARESGVPDRFSGSGSGTDFTLTISSVQAEDVAVYYCQQYYSTPYSFGAGTKLELK	22.4

Respectfully, I request percent of complexes for each entry included below.
1. humanized monoclonal antibody HuCC49 (parental HuCC49) (antibody, V domains shown) VH: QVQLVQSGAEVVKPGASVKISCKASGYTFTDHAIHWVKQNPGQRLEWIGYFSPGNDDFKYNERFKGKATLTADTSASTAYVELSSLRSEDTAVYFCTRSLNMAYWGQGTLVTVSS VL: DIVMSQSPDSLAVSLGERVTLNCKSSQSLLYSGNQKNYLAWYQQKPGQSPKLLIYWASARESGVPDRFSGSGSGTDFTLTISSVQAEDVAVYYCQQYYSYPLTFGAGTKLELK
2. HuCC49 CDR variant L-2 (antibody, V domains shown) VH: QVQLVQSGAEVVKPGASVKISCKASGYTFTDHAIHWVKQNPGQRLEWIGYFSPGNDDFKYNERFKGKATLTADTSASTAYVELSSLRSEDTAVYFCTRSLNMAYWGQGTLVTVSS VL: DIVMSQSPDSLAVSLGERVTLNCKSSQSLLYSGNQKNYLAWYQQKPGQSPKLLIYWASTRESGVPDRFSGSGSGTDFTLTISSVQAEDVAVYYCQQYYSYPLTFGAGTKLELK

Result string:
1: 2.6; 2: 2.7
